- Tested on: SR
- Procedure Details: NCI tumour cell line growth inhibition, 48 h
Calls of active or inactive are those of the source. Cut-off read from the data, not from the text of the source: active = GI50 up to about 1.1 µM and inactive = higher.
Your reply should match one of these outcome classes. 1 (yes) (active), 0 (no) (inactive)

Would you mind telling me which call this test gave N#C/C(=C\c1cc(Br)c(O)c(Br)c1)c1ccccn1 ?
0 (no)

Would you mind telling me which call this test gave N#CC1=C(Cl)NC(Cl)=C(C#N)C1c1ccc(Cl)cc1 ?
0 (no)

Would you mind telling me which call this test gave Cc1ccc(/C=C2\Cc3c(C)cc(C)cc3C2=O)c(C(=O)O)c1 ?
0 (no)

Would you mind telling me which call this test gave O=c1[nH]c2nc(S)nc(S)c2[nH]1 ?
0 (no)

Would you mind telling me which call this test gave O=C(c1ccccc1)C1N=NN(Cc2ccccc2[N+](=O)[O-])C1C(=O)c1ccccc1 (stereo not drawn) ?
0 (no)

Would you mind telling me which call this test gave O=C1NC(=O)C(c2c[nH]c3ccccc23)=C1c1cnc[nH]1 ?
0 (no)

Would you mind telling me which call this test gave COc1ccc(-c2nc(-c3cnccn3)n(Cc3ccccc3)n2)cc1 ?
0 (no)

Would you mind telling me which call this test gave O=C(Nc1ccn(C2CC(O)C(COC(c3ccccc3)(c3ccccc3)c3ccccc3)O2)c(=O)n1)c1ccccc1 (stereo not drawn) ?
0 (no)

Would you mind telling me which call this test gave [N-]=[N+]=NC1C(O)C(CO)OC1n1ccc(=O)[nH]c1=O (stereo not drawn) ?
0 (no)

Would you mind telling me which call this test gave CCOC(=O)c1[nH]c2ccccc2c1C(=O)C[C@H](NC(=O)C(F)(F)F)C(=O)OC ?
0 (no)

Would you mind telling me which call this test gave COC1=CC(=O)O/C1=C(\OC)C1OC1c1ccccc1 (stereo not drawn) ?
0 (no)

Would you mind telling me which call this test gave COC(=O)C1=C(C(=O)OC)SC2(S1)C(C(=O)OC)=C(C(=O)OC)Sc1c2ss/c1=N/C(C)(C)C ?
1 (yes)

Would you mind telling me which call this test gave Cc1c(C(=O)/C=C/c2ccccc2Cl)[n+]([O-])c2ccccc2[n+]1[O-] ?
0 (no)

Would you mind telling me which call this test gave CC(=O)OC1/C(=C/c2ccc([N+](=O)[O-])cc2)C[C@H]2[C@@H]3CC=C4C[C@@H](OC(C)=O)CC[C@]4(C)[C@H]3CC[C@]12C (stereo partly drawn) ?
0 (no)

Would you mind telling me which call this test gave CC(C)C1(O)C(=O)N(c2c(F)c(F)c(F)c(F)c2F)C(=S)N1CCSc1ccccc1 (stereo not drawn) ?
0 (no)

Would you mind telling me which call this test gave CCCCCCCCCCCCOCCOCCOCCOCCOCCOCC(=O)NC(Cc1ccccc1)C(=O)Oc1ccc([N+](=O)[O-])cc1 (stereo not drawn) ?
0 (no)

Would you mind telling me which call this test gave O=C(c1cccc2ccccc12)C1S(=O)(=O)OCCOS1(=O)=O ?
0 (no)

Would you mind telling me which call this test gave O=C1O/C(=C\c2ccc(O)cc2)C(c2ccc(O)c(Cl)c2)=C1Br ?
0 (no)

Would you mind telling me which call this test gave N=C(N)SCc1nc(-c2ccc(Cl)cc2)no1 ?
0 (no)

Would you mind telling me which call this test gave Cc1nc(N)nc2ccccc12 ?
0 (no)

Would you mind telling me which call this test gave O=C1NC2(CN3CCC2CC3)C(=O)N1CN(Cc1ccccc1)c1ccccc1 (stereo not drawn) ?
0 (no)

Would you mind telling me which call this test gave COc1cc(-c2nc3cc(F)ccc3s2)ccc1O ?
0 (no)

Would you mind telling me which call this test gave COc1ccc(C(=O)/C=C/S/C(=N/C#N)SC)cc1 ?
0 (no)

Would you mind telling me which call this test gave O=C(CCl)N1CCCCC1C1(c2cc3ccccc3[nH]2)OCCO1 (stereo not drawn) ?
1 (yes)

Would you mind telling me which call this test gave N#CCCN(CCC#N)c1ccc(/C=C2\N=C(c3ccccc3)N(c3ccc(F)cc3)C2=O)cc1 ?
0 (no)

Would you mind telling me which call this test gave CCCCCCCCCCCCCCCCP(=O)([O-])OCC[N+](C)(C)C ?
0 (no)

Would you mind telling me which call this test gave C=CCN1C(N)=C(C#N)C(C#N)(C#N)C1CCC (stereo not drawn) ?
0 (no)

Would you mind telling me which call this test gave COc1ccc(Nc2nc3ccccc3nc2C(=O)O)cc1 ?
0 (no)

Would you mind telling me which call this test gave O=C(O)c1ccccc1NCn1c(=S)sc2ccccc21 ?
0 (no)

Would you mind telling me which call this test gave CC(C)(C)OC(=O)NC(Cc1ccccc1)C(=O)N[C@H]1c2ccsc2/C(=N/O)[C@H]1O (stereo partly drawn) ?
0 (no)

Would you mind telling me which call this test gave O=c1ccn(C2OC(COC3CCCCO3)C(OC3CCCCO3)C2OC2CCCCO2)c(=O)n1-c1ccccc1 (stereo not drawn) ?
0 (no)

Would you mind telling me which call this test gave IC[P+]1(c2ccccc2)CCCC1 ?
0 (no)

Would you mind telling me which call this test gave O=C(O)c1ccccc1CC1Cc2ccc3c(c2C1=O)CCC3 (stereo not drawn) ?
0 (no)

----------
- Test system: RPMI-8226
- Procedure Details: NCI tumour cell line growth inhibition, 48 h
Active and inactive are the calls of the source. Cut-off read from the data, not from the text of the source: active = GI50 up to about 1.1 µM and inactive = higher.
Value Type: GI50

Field request: GI50 | item: CCOC(=O)C(NC(=O)c1cccc(Cl)c1)(Nc1ccc(S(=O)(=O)Nc2cc(C)on2)cc1)C(F)(F)F (stereo not drawn)
> 100 µM (inactive)

Field request: GI50 | item: O=C1O/C(=C\c2ccc(O)cc2)C(c2ccc(O)c(Cl)c2)=C1Br
10.6 µM (inactive)

Field request: GI50 | item: O=C(O)c1cc2c(cc1CC(Cc1ccc3c(c1)CCC3)C(=O)O)CCC2 (stereo not drawn)
> 100 µM (inactive)

Field request: GI50 | item: C=C(C)C(=O)O[C@H]1CC2=CC(CC(C)=C[C@H]3OC(=O)C(=C)C13)OC2=O (stereo partly drawn)
2.93 µM (inactive)

Field request: GI50 | item: COc1cc(/C=C\C(=O)O)ccc1OCc1ccccc1
> 100 µM (inactive)

Field request: GI50 | item: O=C(NNC(=O)c1ccccc1O)c1ccc(O)cc1
81.5 µM (inactive)

Field request: GI50 | item: O=c1c2ccccc2nc(Cc2nc(-c3ccc(Cl)cc3)cs2)n1-c1ccc(Cl)cc1
23.8 µM (inactive)

Field request: GI50 | item: CN(C)CCCOC(=O)C(c1ccccc1)C1(O)CCSCC1 (stereo not drawn)
> 100 µM (inactive)

Field request: GI50 | item: Cc1c(NC(=O)Nc2c(Cl)cccc2Cl)c(=O)n(-c2ccccc2)n1C
> 100 µM (inactive)

Field request: GI50 | item: Fc1cccc(/C=N/C23CC4CC(CC(C4)C2)C3)c1
> 100 µM (inactive)

Field request: GI50 | item: Cc1ccc(S(=O)(=O)NC(=O)C2=C(c3ccccc3)[N-]N(C)c3nc4cccc[n+]4nc32)cc1
45.6 µM (inactive)

Field request: GI50 | item: COC(=O)[C@@]12C(=O)C=CC(=O)[C@@H]1C1C(=CC2COC(C)=O)O[C@@H]2OC3(CCCCC3)O[C@H]12 (stereo partly drawn)
2.99 µM (inactive)

Field request: GI50 | item: COC(=O)C1=C(O)c2cc3c(cc2[C@H](c2cc(OC)c(OC)c(OC)c2)C1)OCO3
23 µM (inactive)

Field request: GI50 | item: O=C(c1cccc2ccccc12)C1S(=O)(=O)OCCOS1(=O)=O
> 100 µM (inactive)

Field request: GI50 | item: COC(=O)Nc1nc2cc(S(=O)(=O)NC(CC(C)C)C(=O)OC)ccc2[nH]1 (stereo not drawn)
3.28 µM (inactive)

Field request: GI50 | item: CC(C)C1(O)C(=O)N(c2c(F)c(F)c(F)c(F)c2F)C(=S)N1CCSc1ccccc1 (stereo not drawn)
10.9 µM (inactive)

Field request: GI50 | item: CCN(c1n[n+]2c(-c3ccccc3)csc2s1)c1n[n+]2c(-c3ccccc3)csc2s1
29.6 µM (inactive)

Field request: GI50 | item: C=CCN1C(N)=C(C#N)C(C#N)(C#N)C1CCC (stereo not drawn)
> 100 µM (inactive)

Field request: GI50 | item: C/C(=N\NC(=O)c1ccncc1)c1sc(-n2nc(-c3ccccc3)cc2-c2ccccc2)nc1C
20.7 µM (inactive)

Field request: GI50 | item: Nc1nc(Cl)cc(NCC2(CO)CC(c3ccccc3)C2)n1 (stereo not drawn)
17.2 µM (inactive)

Field request: GI50 | item: C=C1CC[C@](C)(O)[C@@]2(C)CC[C@H]3C(=C(C)C)C(=O)C[C@]3(C)C[C@H]12
17.9 µM (inactive)

Field request: GI50 | item: COc1cc(/C=C2\C(=O)N(c3ccc(Cl)cc3)C(c3ccccc3)S2(=O)=O)cc(OC)c1OC (stereo not drawn)
7.46 µM (inactive)

Field request: GI50 | item: CCOC(=O)/C=C(\C(=O)OCC)n1ccc(=O)n(Cc2cnnn2CCCCOC(C)=O)c1=O
6.68 µM (inactive)
